# tested_system: FRMPD2_3, Q68DX3
# Sequence (Q68DX3 1073-1166): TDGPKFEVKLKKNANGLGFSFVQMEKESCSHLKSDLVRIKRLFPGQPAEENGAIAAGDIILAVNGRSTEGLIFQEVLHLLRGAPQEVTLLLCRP
# method_summary: holdup assay
# Design: key: below the threshold = too weak to quantify, mostly under pKd 3.1 to 4
# condition_details: plain residues with an end cap or a label only (N-terminal biotin on a linker: ado-ado)
measured_endpoint: pKd

{"binder": "QKAPTKEFYA [SDC2, P34741]", "val": 3.67}
{"binder": "LPAVCYDIDI [PTTG2, Q9NZH5]", "val": "below the threshold"}
{"binder": "KRPEMTSSSV [MUC3A, MUC3B, Q02505;Q9H195]", "val": "below the threshold"}
{"binder": "LKDDELKTKL [SLCO1A2, P46721]", "val": "below the threshold"}
{"binder": "VLYPREGTEV [FOXI1, Q12951]", "val": "below the threshold"}
